target: IRAK4 (Homo sapiens, UniProt Q9NWZ3); construct: His (N); TEV cleavage site (N); assay: IRAK4 Enzymatic Assay; conditions: His-TEV-IRAK4 20 ng/well, ATP 2 μM, STK1-biotin peptide 300 nM, 3 hours at 30° C., FlashPlate radioactivity
Sequence (Q9NWZ3 whole entry): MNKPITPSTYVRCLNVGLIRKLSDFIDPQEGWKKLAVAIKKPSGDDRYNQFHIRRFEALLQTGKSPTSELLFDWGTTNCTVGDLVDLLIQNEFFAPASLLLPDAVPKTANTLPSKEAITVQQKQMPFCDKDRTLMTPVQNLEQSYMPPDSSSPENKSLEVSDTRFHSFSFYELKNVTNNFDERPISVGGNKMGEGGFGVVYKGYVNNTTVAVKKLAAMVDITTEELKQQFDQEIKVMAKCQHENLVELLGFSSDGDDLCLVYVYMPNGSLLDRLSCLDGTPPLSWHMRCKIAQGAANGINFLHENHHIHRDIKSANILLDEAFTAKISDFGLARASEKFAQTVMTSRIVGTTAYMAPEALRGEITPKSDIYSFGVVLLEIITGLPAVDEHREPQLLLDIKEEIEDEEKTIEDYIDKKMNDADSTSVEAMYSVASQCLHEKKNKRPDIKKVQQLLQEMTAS
Counter-ions that a name gives are not always drawn.
Answer each item with its documented IC50.

[
  {
    "molecule": "CN1CC2CC1CN2C(=O)[C@H]1CC[C@H](n2cc(-c3cnc(-c4cccc(-c5cnn(C)c5)c4)nc3)cn2)CC1 (stereo partly shown) [Example 278, hydrobromide]",
    "measured.attribute": "IC50",
    "result": "< 100 nM"
  },
  {
    "molecule": "C[C@@H](CO)NC(=O)[C@H]1CC[C@H](n2cc(-c3cnc(-c4cccc(-c5cnn(C)c5)c4)nc3)cn2)CC1 [Example 198]",
    "measured.attribute": "IC50",
    "result": "< 100 nM"
  },
  {
    "molecule": "NCCCn1cc(-c2cccc(-c3ncc(-c4cnn(CC(=O)N5CCCC5)c4)cn3)c2)cn1 [Example 42, hydrochloride]",
    "measured.attribute": "IC50",
    "result": "1000 to 5000 nM"
  },
  {
    "molecule": "Cn1cc(-c2cccc(-c3ncc(-c4cnn(CCC5CCOCC5)c4)cn3)c2)cn1 [Example 69]",
    "measured.attribute": "IC50",
    "result": "100 to 1000 nM"
  },
  {
    "molecule": "CC(CO)NC(=O)[C@H]1CC[C@H](n2cc(-c3cnc(-c4cccc(-c5cnn(C)c5)c4)nc3)cn2)CC1 (stereo partly shown) [Example 188]",
    "measured.attribute": "IC50",
    "result": "100 to 1000 nM"
  }
]

For the 2 molecules below, give their IC50 values.
1. Cc1ccc(-c2cccc(-c3ncc(-c4cnn([C@H]5CC[C@H](C(=O)N(C)C)CC5)c4)cn3)c2)nn1 [Example 237]
2. Cn1cc(-c2cccc(-c3ncc(-c4cnn(C5CCOC5=O)c4)cn3)c2)cn1 (stereo not shown) [Example 129]

["1000 to 5000 nM", "100 to 1000 nM"]
